Test system: PXR:RXRa (NR concentration 270 nM, RXRa partner concentration 90 nM)
Experiment: PBM binding z-score (relative to random genomic background probes); higher = stronger binding; sequences stand for … in GC…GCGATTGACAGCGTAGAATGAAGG
Decision: PBM binding z-score >= 0.6 yields 1 (yes), all other cases yield 0 (no).

Primary Sequence	Class Label
ATCGAAAGGTCGTGAGGTGAGGATACAGAAAGGC	1 (yes)
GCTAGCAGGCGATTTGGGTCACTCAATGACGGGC	0 (no)
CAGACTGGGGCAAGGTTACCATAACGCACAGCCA	0 (no)
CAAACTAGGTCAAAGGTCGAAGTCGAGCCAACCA	1 (yes)
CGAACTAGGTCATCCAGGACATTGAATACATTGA	1 (yes)
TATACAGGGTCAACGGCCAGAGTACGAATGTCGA	1 (yes)
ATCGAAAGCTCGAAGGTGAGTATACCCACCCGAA	0 (no)
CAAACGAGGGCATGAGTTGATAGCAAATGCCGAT	0 (no)
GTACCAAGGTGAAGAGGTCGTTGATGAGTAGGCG	1 (yes)
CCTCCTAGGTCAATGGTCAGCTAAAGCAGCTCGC	1 (yes)
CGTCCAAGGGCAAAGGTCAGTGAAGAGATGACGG	1 (yes)
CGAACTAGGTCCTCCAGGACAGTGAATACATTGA	0 (no)
